The values you see were collected from ChEMBL document CHEMBL1157882.

- Test system: Prunus dulcis
- Protocol summary: Inhibition of beta-glucosidase from almond at 1 mM at pH 5
Listing of recorded inhibition by entry.

# example entries with known answers
- Structure string: "OC[C@H](NC[C@H]1NC[C@H](O)[C@@H]1O)c1ccc(OCc2ccccc2)cc1"
  inhibition: "40%"
- Structure string: "OC[C@H](NC[C@H]1NC[C@H](O)[C@@H]1O)c1ccc(-c2ccc(C(F)(F)F)cc2)cc1"
  inhibition: "50%"
- Structure string: "COc1ccc([C@H](CO)NC[C@H]2NC[C@H](O)[C@@H]2O)cc1"
  inhibition: "62%"
- Structure string: "OC[C@H](NC[C@H]1NC[C@H](O)[C@@H]1O)c1ccc(-c2ccccc2)cc1"
  inhibition: "20%"
- Structure string: "OC[C@H](NC[C@H]1NC[C@H](O)[C@@H]1O)c1ccc(-c2ccsc2)cc1"
  inhibition: "36%"

Proceed to the following item.
Qu. Given "C=CCOc1ccc([C@H](CO)NC[C@H]2NC[C@H](O)[C@@H]2O)cc1" , report its inhibition on Prunus dulcis.
Ans. 72%

* * *

- Test system: Saccharomyces cerevisiae
- Protocol summary: Inhibition of alpha-glucosidase from yeast at 1 mM at pH 7
Listing of recorded inhibition by entry.
Record the value in %, omitting the unit from your answer.

# example entries with known answers
- Structure string: "OC[C@H](NC[C@H]1NC[C@H](O)[C@@H]1O)c1ccc(-c2ccccc2)cc1"
  Value observed: 24
- Structure string: "C=CCOc1ccc([C@H](CO)NC[C@H]2NC[C@H](O)[C@@H]2O)cc1"
  Value observed: 41

Qu. Report inhibition, nothing else, for this molecule: "COc1ccc([C@H](CO)NC[C@H]2NC[C@H](O)[C@@H]2O)cc1"
Ans. 41

Qu. Report inhibition, nothing else, for this molecule: "OC[C@H](NC[C@H]1NC[C@H](O)[C@@H]1O)c1ccc(OCc2ccccc2)cc1"
Ans. 45

* * *

- Tested on: Jurkat
- Protocol summary: Cytotoxicity against human Jurkat cells after 72 hrs by colorimetric assay
- Type: functional, cell-based
- Reported conditions: Homo sapiens, Jurkat, 72 h; read-out: IC50
Measurement name: IC50

# example entries with known answers
- Structure string: "OC[C@H](NC[C@H]1NC[C@H](O)[C@@H]1O)c1ccc(-c2ccccc2)cc1"
  Value observed: "> 200 µM"
- Structure string: "COc1ccc([C@H](CO)NC[C@H]2NC[C@H](O)[C@@H]2O)cc1"
  Value observed: "> 200 µM"
- Structure string: "C=CCOc1ccc([C@H](CO)NC[C@H]2NC[C@H](O)[C@@H]2O)cc1"
  Value observed: "> 200 µM"

Proceed to the following item.
Qu. Given "OC[C@H](NC[C@H]1NC[C@H](O)[C@@H]1O)c1ccc(-c2ccc(C(F)(F)F)cc2)cc1" , report its IC50 on Jurkat.
Ans. 75 µM

* * *

Listing of recorded pIC50 by entry.
- Protocol summary: Inhibition of alpha-mannosidase from jack bean at pH 5
- Design: species or system Canavalia ensiformis
In plain terms, pIC50 is the concentration in mol/L turned into minus its base-10 logarithm.

- Structure string: "OC[C@H](NC[C@H]1NC[C@H](O)[C@@H]1O)c1ccc(-c2ccsc2)cc1"
  pIC50: 5.96
- Structure string: "OC[C@H](NC[C@H]1NC[C@H](O)[C@@H]1O)c1ccc(-c2ccccc2)cc1"
  pIC50: 5.85
- Structure string: "OC[C@H](NC[C@H]1NC[C@H](O)[C@@H]1O)c1ccc(OCc2ccccc2)cc1"
  pIC50: 5.85
- Structure string: "OC[C@H](NC[C@H]1NC[C@H](O)[C@@H]1O)c1ccc(-c2ccc(C(F)(F)F)cc2)cc1"
  pIC50: 5.30
- Structure string: "COc1ccc([C@H](CO)NC[C@H]2NC[C@H](O)[C@@H]2O)cc1"
  pIC50: 6.10

Proceed to the following item.
Qu. Report pIC50, nothing else, for this molecule: "C=CCOc1ccc([C@H](CO)NC[C@H]2NC[C@H](O)[C@@H]2O)cc1"
Ans. 6.05

* * *

- System: Canavalia ensiformis
- Protocol summary: Inhibition of alpha-mannosidase from jack bean at 1 mM at pH 5
Listing of recorded inhibition by entry.
Record the value in %, omitting the unit from your answer.

- Structure string: "C=CCOc1ccc([C@H](CO)NC[C@H]2NC[C@H](O)[C@@H]2O)cc1"
  inhibition [%]: 99
- Structure string: "OC[C@H](NC[C@H]1NC[C@H](O)[C@@H]1O)c1ccc(OCc2ccccc2)cc1"
  inhibition [%]: 99
- Structure string: "OC[C@H](NC[C@H]1NC[C@H](O)[C@@H]1O)c1ccc(-c2ccsc2)cc1"
  inhibition [%]: 97
- Structure string: "OC[C@H](NC[C@H]1NC[C@H](O)[C@@H]1O)c1ccc(-c2ccccc2)cc1"
  inhibition [%]: 99
- Structure string: "OC[C@H](NC[C@H]1NC[C@H](O)[C@@H]1O)c1ccc(-c2ccc(C(F)(F)F)cc2)cc1"
  inhibition [%]: 98

Qu. Given "COc1ccc([C@H](CO)NC[C@H]2NC[C@H](O)[C@@H]2O)cc1" , report its inhibition on Canavalia ensiformis.
Ans. 98

* * *

- Tested on: Aspergillus niger
- Protocol summary: Inhibition of beta-xylosidase from Aspergillus niger at pH 5
- Design: concentration or dose not given beside the values
- Reported conditions: concentration not given here
Listing of recorded inhibition by entry.
Record the value in %, omitting the unit from your answer.

- Structure string: "OC[C@H](NC[C@H]1NC[C@H](O)[C@@H]1O)c1ccc(-c2ccccc2)cc1"
  Measurement name: "inhibition"
  Units text: "%"
  Value observed: 50
- Structure string: "C=CCOc1ccc([C@H](CO)NC[C@H]2NC[C@H](O)[C@@H]2O)cc1"
  Measurement name: "inhibition"
  Units text: "%"
  Value observed: 28
- Structure string: "COc1ccc([C@H](CO)NC[C@H]2NC[C@H](O)[C@@H]2O)cc1"
  Measurement name: "inhibition"
  Units text: "%"
  Value observed: 28
- Structure string: "OC[C@H](NC[C@H]1NC[C@H](O)[C@@H]1O)c1ccc(-c2ccsc2)cc1"
  Measurement name: "inhibition"
  Units text: "%"
  Value observed: 50
- Structure string: "OC[C@H](NC[C@H]1NC[C@H](O)[C@@H]1O)c1ccc(-c2ccc(C(F)(F)F)cc2)cc1"
  Measurement name: "inhibition"
  Units text: "%"
  Value observed: 52

Proceed to the following item.
Qu. Report inhibition, nothing else, for this compound: "OC[C@H](NC[C@H]1NC[C@H](O)[C@@H]1O)c1ccc(OCc2ccccc2)cc1"
Ans. 45

* * *

- Organism: Bos taurus
- Protocol summary: Inhibition of beta-N-acetylglucosaminidase from bovine kidney at pH 4
- Parameters: concentration or dose not given beside the values
- Reported conditions: concentration not given here
Listing of recorded inhibition by entry.

# example entries with known answers
- Structure string: "COc1ccc([C@H](CO)NC[C@H]2NC[C@H](O)[C@@H]2O)cc1"
  inhibition: "< 10%"
- Structure string: "OC[C@H](NC[C@H]1NC[C@H](O)[C@@H]1O)c1ccc(-c2ccsc2)cc1"
  inhibition: "< 10%"
- Structure string: "OC[C@H](NC[C@H]1NC[C@H](O)[C@@H]1O)c1ccc(OCc2ccccc2)cc1"
  inhibition: "< 10%"
- Structure string: "OC[C@H](NC[C@H]1NC[C@H](O)[C@@H]1O)c1ccc(-c2ccc(C(F)(F)F)cc2)cc1"
  inhibition: "< 10%"
- Structure string: "C=CCOc1ccc([C@H](CO)NC[C@H]2NC[C@H](O)[C@@H]2O)cc1"
  inhibition: "< 10%"

Qu. Report inhibition, nothing else, for this compound: "OC[C@H](NC[C@H]1NC[C@H](O)[C@@H]1O)c1ccc(-c2ccccc2)cc1"
Ans. < 10%
